Assay: Acute oral toxicity (LD50)
Assay type: in vivo
Conditions: mouse, in vivo, mice, read-out: Lethal dose LD50
Procedure: The LD 50 was calculated by the method of Litchfield and Wilcoxon (J. Pharmacol. Exp. Ther., 96, 99, 1949) and is expressed in mg/kg. The products were orally administered to mice. Behaviour was studied, 2, 4, 6 and 24 hours after treatment. Observation was continued if symptoms persisted at that time. Deaths were recorded during the 14 days after treatment. The results are given in Table II, in which the numbers of the compounds are the same as the numbers given in column 1 of Table I.
Please respond with reported LD50 at 336 h for every item in the list.

Enquiry: Endpoint output: LD50 at 336 h of "CC(C)(C)CC(=O)OCN1C(=O)N(COC(=O)CC(C)(C)C)C2(C1=O)c1ccccc1-c1ccccc12" . Value?
Return: > 1000 mg/kg

Enquiry: Endpoint output: LD50 at 336 h of "CC(=O)OCN1C(=O)N(COC(C)=O)C2(C1=O)c1ccccc1-c1ccccc12" . Value?
Return: > 3000 mg/kg

Enquiry: Endpoint output: LD50 at 336 h of O=C1NC(=O)[C@@]2(CCOc3ccc(F)cc32)N1 [sorbinil, reference compound] . Value?
Return: 1450 mg/kg

Enquiry: Endpoint output: LD50 at 336 h of "CCOC(=O)OCN1C(=O)N(COC(=O)OCC)C2(C1=O)c1ccccc1-c1ccccc12" . Value?
Return: > 3000 mg/kg

Enquiry: Endpoint output: LD50 at 336 h of "O=C(OCN1C(=O)N(COC(=O)C2CCCCC2)C2(C1=O)c1ccccc1-c1ccccc12)C1CCCCC1" . Value?
Return: > 1000 mg/kg

Enquiry: Endpoint output: LD50 at 336 h of "CC(=O)OCN1C(=O)NC2(C1=O)c1ccccc1-c1ccccc12" . Value?
Return: > 1000 mg/kg

Enquiry: Endpoint output: LD50 at 336 h of "O=C(OCN1C(=O)N(COC(=O)c2ccccc2)C2(C1=O)c1ccccc1-c1ccccc12)c1ccccc1" . Value?
Return: > 3000 mg/kg

Enquiry: Endpoint output: LD50 at 336 h of "O=C(COc1ccccc1)OCN1C(=O)N(COC(=O)COc2ccccc2)C2(C1=O)c1ccccc1-c1ccccc12" . Value?
Return: > 1000 mg/kg

###

Please respond with reported inhibition at 100 µM for every item in the list.
biological target: aldose reductase (Rattus norvegicus); construct: The supernatant liquid formed the enzyme solution used for the test; from tissue; host or cells: rat crystalline lens, water homogenate, supernatant; assay: Inhibition of enzymatic activity of aldose reductase in vitro; assay type: biochemical; settings: 10^-4 M, rat crystalline lens enzyme, pH 6.2, D,L-glyceraldehyde substrate; read-out: Inhibition of enzymatic activity of AR in vitro
Just the number please, in %, no unit attached.

Enquiry: Endpoint output: inhibition at 100 µM of CCCCCCCC(=O)OCN1C(=O)N(COC(=O)CCCCCCC)C2(C1=O)c1ccccc1-c1ccccc12 [Compound 6] . Value?
Return: 0

Enquiry: Endpoint output: inhibition at 100 µM of COCN1C(=O)NC2(C1=O)c1ccccc1-c1ccccc12 [Compound 17] . Value?
Return: 84

Enquiry: Endpoint output: inhibition at 100 µM of O=C(CCCc1ccccc1)OCN1C(=O)N(COC(=O)CCCc2ccccc2)C2(C1=O)c1ccccc1-c1ccccc12 [Compound 11] . Value?
Return: 0

Enquiry: Endpoint output: inhibition at 100 µM of CCCCC(=O)OCN1C(=O)N(COC(=O)CCCC)C2(C1=O)c1ccccc1-c1ccccc12 [Compound 15] . Value?
Return: 0

Enquiry: Endpoint output: inhibition at 100 µM of O=C1N(CO)C(=O)C2(c3ccccc3-c3ccccc32)N1CO [Compound 1] . Value?
Return: 34

Enquiry: Endpoint output: inhibition at 100 µM of CC(=O)OCN1C(=O)NC2(C1=O)c1ccccc1-c1ccccc12 [Compound 21] . Value?
Return: 8

Enquiry: Endpoint output: inhibition at 100 µM of CNC(=O)OCN1C(=O)N(COC(=O)NC)C2(C1=O)c1ccccc1-c1ccccc12 [Compound 22] . Value?
Return: 0
